molecular target: MAPK14 (human) (UniProt Q16539); assay: In vitro Inhibition of TNF-alpha Production in PBMC Cells
Sequence (Q16539 whole entry, looked up): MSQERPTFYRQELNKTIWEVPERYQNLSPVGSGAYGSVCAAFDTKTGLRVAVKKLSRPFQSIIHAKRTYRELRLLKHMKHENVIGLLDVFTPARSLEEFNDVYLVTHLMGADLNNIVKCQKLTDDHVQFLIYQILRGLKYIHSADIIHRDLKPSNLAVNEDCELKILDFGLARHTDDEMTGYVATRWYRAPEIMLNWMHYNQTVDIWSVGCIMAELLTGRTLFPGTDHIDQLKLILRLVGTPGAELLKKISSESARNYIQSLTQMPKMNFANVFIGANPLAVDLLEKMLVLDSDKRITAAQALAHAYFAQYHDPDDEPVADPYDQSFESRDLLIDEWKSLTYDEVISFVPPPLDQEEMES
pIC50: −log10 of the molar value.
Each record here notes measured pIC50.
measurement name: pIC50

molecule	assayed system	result number
Cn1cc(-c2ccncc2)c(-c2ccc(F)cc2)c1C#N	MAPK14 (human) (UniProt Q16539)	6.77
C[C@H](Nc1nccc(-c2cn(CCN3CCOCC3)cc2-c2ccc(F)cc2)n1)c1ccccc1	MAPK14 (human) (UniProt Q16539)	8.40
COc1ccc(CNCc2[nH]cc(-c3ccncc3)c2-c2ccc(F)cc2)cc1	MAPK14 (human) (UniProt Q16539)	6.72
COC(=O)c1c(-c2ccncc2)c(-c2ccc(F)cc2)c(C#CCCN2CCOCC2)n1C	MAPK14 (human) (UniProt Q16539)	7.49
COC(=O)c1c(-c2ccc(F)cc2)c(-c2ccncc2)c(Nc2cccc(NC(C)=O)c2)n1C	MAPK14 (human) (UniProt Q16539)	7.68
CN(C)C(=O)c1c(-c2ccc(F)cc2)c(-c2ccncc2)cn1C	MAPK14 (human) (UniProt Q16539)	5.86
Cn1c(C#N)c(-c2ccc(F)cc2)c(-c2ccncc2)c1N1CCNCC1	MAPK14 (human) (UniProt Q16539)	7.74
CCOC(=O)c1[nH]cc(-c2ccc(F)cc2)c1-c1ccncc1	MAPK14 (human) (UniProt Q16539)	6.84
COC(=O)CCCn1c(NCCN2CCOCC2)c(-c2ccncc2)c(-c2ccc(F)cc2)c1C(=O)OC	MAPK14 (human) (UniProt Q16539)	7.54
COC(=O)c1c(-c2ccc(F)cc2)c(-c2ccncc2)c(N2CCC(NC(=O)OC(C)(C)C)C2)n1C (stereo not given)	MAPK14 (human) (UniProt Q16539)	5.78

----------
tested on: MAPK14 (BALB/cJ mice); experiment: In vivo Inhibition of LPS-induced TNF-alpha Production; details: dose or concentration not given here
Recorded inhibition split into classes lower segment (below -20%), middle segment (-20% to below 50%), upper segment (50% or more)

compound	class label
CCn1cc(-c2ccncc2)c(-c2ccc(F)cc2)c1CO	middle segment
COC(=O)c1c(-c2ccc(F)cc2)c(-c2ccncc2)c(N2CCN(C(C)=O)CC2)n1C	upper segment
Cn1cc(-c2ccncc2)c(-c2ccc(F)cc2)c1-c1cnco1	upper segment
Cn1c(N2CCCC2)c(-c2ccncc2)c(-c2ccc(F)cc2)c1C(C)(C)O	middle segment
CCOC(=O)c1[nH]cc(-c2ccncc2)c1-c1ccc(C)cc1	lower segment
CCOC(=O)N1CCN(c2c(-c3ccncc3)c(-c3ccc(F)cc3)c(C(=O)OC)n2C)CC1	middle segment
CNC(=O)c1c(-c2ccc(F)cc2)c(-c2ccncc2)c(N2CCNCC2)n1C	middle segment
CN(Cc1ccccc1)Cc1[nH]cc(-c2ccc(F)cc2)c1-c1ccncc1	middle segment
COC(=O)c1c(-c2ccncc2)c(-c2ccc(F)cc2)cn1C	lower segment
Cn1cc(-c2ccc(F)cc2)c(-c2ccncc2)c1CO	upper segment
O=C(NCc1ccccc1)c1[nH]cc(-c2ccc(F)cc2)c1-c1ccncc1	lower segment
CCOC(=O)c1[nH]cc(-c2ccncc2)c1-c1ccc(F)c(F)c1	lower segment
COC(=O)C1CCn2c(NCCN3CCOCC3)c(-c3ccncc3)c(-c3ccc(F)cc3)c2C1=O (stereo unspecified)	upper segment
CCOC(=O)c1[nH]cc(-c2ccncc2)c1-c1cccc(C(F)(F)F)c1	middle segment
Cn1c(Br)c(-c2ccncc2)c(-c2ccc(F)cc2)c1C#N	middle segment
COCC#Cc1c(-c2ccc(F)cc2)c(-c2ccncc2)c(C(=O)OC)n1C	middle segment
Cn1c(CO)c(-c2ccc(F)cc2)c(-c2ccncc2)c1N1CCN(C(=O)OC(C)(C)C)CC1	upper segment
COC(=O)C1Cn2cc(-c3ccncc3)c(-c3ccc(F)cc3)c2C1=O (stereo unspecified)	middle segment
COC(=O)c1c(-c2ccc(F)cc2)c(-c2ccncc2)c(NC2CCNCC2)n1C	middle segment
COC(=O)c1c(-c2ccc(F)cc2)c(-c2ccncc2)c(C#CCN2CCN(C)CC2)n1C	upper segment
CCOC(=O)c1c(-c2cc(F)cc(F)c2)c(-c2ccncc2)c(Br)n1C	lower segment
CCn1cc(-c2ccncc2)c(-c2ccc(F)cc2)c1C(=O)OC	upper segment
CCNC(=O)N1CCN(c2c(-c3ccncc3)c(-c3ccc(F)cc3)c(C(=O)OC)n2C)CC1	lower segment
CCCc1c(-c2ccnc(N[C@@H](C)c3ccccc3)n2)c(-c2ccc(F)cc2)cn1CCN1CCOCC1	lower segment
COC(=O)c1c(-c2ccc(F)cc2)c(-c2ccncc2)c(N2CCOCC2)n1C	lower segment
COC(=O)CN1CCN(c2c(-c3ccncc3)c(-c3ccc(F)cc3)c(C(=O)OC)n2C)CC1	middle segment
CCCc1[nH]cc(-c2ccc(F)cc2)c1-c1ccnc(N[C@@H](C)c2ccccc2)n1	middle segment
CCOC(=O)c1[nH]cc(-c2ccncc2)c1-c1cc(F)cc(F)c1	middle segment
COC(=O)c1c(-c2ccncc2)c(-c2ccc(F)cc2)c(C#CCN2CCOCC2)n1C	middle segment
CCN1CCN(c2c(-c3ccncc3)c(-c3ccc(F)cc3)c(C(=O)OC)n2C)CC1	upper segment
CCOC(=O)c1c(-c2ccc(C)cc2)c(-c2ccncc2)c(Br)n1C	lower segment
OCc1[nH]cc(-c2ccc(F)cc2)c1-c1ccncc1	lower segment
CCCc1[nH]cc(-c2ccc(F)cc2)c1-c1ccnc(N[C@@H](C)COC)n1	lower segment
CCCc1c(-c2ccnc(SC)n2)c(-c2ccc(F)cc2)cn1CCCN(C)C	lower segment
CCCc1c(-c2ccnc(N[C@@H](C)COC)n2)c(-c2ccc(F)cc2)cn1CCN1CCOCC1	middle segment
Fc1ccc(-c2cn3c(c2-c2ccncc2)CNCC3)cc1	upper segment
CCOC(=O)c1c(-c2cc(F)cc(F)c2)c(-c2ccncc2)cn1C	lower segment
CCOC(=O)c1c(-c2cc(F)cc(F)c2)c(-c2ccncc2)c(N2CCNCC2)n1C	upper segment

----------
test system: MAPK14 (BALB/cJ mice); experiment: In vivo Inhibition of LPS-induced TNF-alpha Production; conditions: dose or concentration not given here
Recorded inhibition split into classes bottom end: < 20%; midrange: ≥ 20% and < 50%; top end: ≥ 50%

smiles notation	class label
COC(=O)c1c(-c2ccc(F)cc2)c(-c2ccncc2)c(Nc2ccc(N(C)C)cc2)n1C	bottom end
COC(=O)c1c(-c2ccc(F)cc2)c(-c2ccncc2)c(NCCCN2CCOCC2)n1C	top end
COC(=O)c1c(-c2ccc(F)cc2)c(-c2ccncc2)c(N2CCCC2)n1C	bottom end
COC(=O)c1c(-c2ccc(F)cc2)c(-c2ccncc2)c(NCCN2CCCCC2)n1C	bottom end
CCN1C(=O)c2c(-c3ccncc3)c(-c3ccc(F)cc3)cn2C1=O	top end
CN(CCO)Cc1[nH]cc(-c2ccc(F)cc2)c1-c1ccncc1	bottom end
COC(=O)c1c(-c2ccc(F)cc2)c(-c2ccncc2)cn1C(C)=O	bottom end
OCc1c(-c2ccc(F)cc2)c(-c2ccncc2)cn1CCN1CCOCC1	bottom end
COC(=O)c1c(-c2ccc(F)cc2)c(-c2ccncc2)c(Nc2ccc(N3CCOCC3)cc2)n1C	midrange
Cn1c(C(=O)OC(C)(C)C)c(-c2ccc(F)cc2)c(-c2ccncc2)c1N1CCNCC1	midrange
COC(=O)c1c(-c2ccc(F)cc2)c(-c2ccncc2)c(Nc2cccnc2)n1C	bottom end
CCOC(=O)c1c(-c2ccc(C)cc2)c(-c2ccncc2)c(N2CCNCC2)n1C	top end
Fc1ccc(-c2c[nH]c(CNCc3ccncc3)c2-c2ccncc2)cc1	midrange
Cn1c(C#N)c(-c2ccc(F)cc2)c(-c2ccncc2)c1N1CCNCC1	top end
CCC(=O)c1c(-c2ccc(F)cc2)c(-c2ccncc2)c(N2CCNCC2)n1C	midrange
COC(=O)c1c(-c2ccc(F)cc2)c(-c2ccncc2)c(NCCN2CCNCC2)n1C	top end
COC(=O)c1c(-c2ccc(F)cc2)c(-c2ccncc2)c(NCCN2CCCC2)n1CCN1CCOCC1	midrange
Cn1cc(-c2ccc(F)cc2)c(-c2ccncc2)c1N1CCNCC1	top end
CN1CCN(c2c(-c3ccncc3)c(-c3ccc(F)cc3)c(C#N)n2C)CC1	midrange

----------
test system: MAPK14 (BALB/cJ mice); assay: In vivo Inhibition of LPS-induced TNF-alpha Production; conditions: dose or concentration not given here

smiles notation	inhibition (%)
CC(=O)c1c(-c2ccc(F)cc2)c(-c2ccncc2)c(N2CCN(C)CC2)n1C	40
COC(=O)c1c(-c2ccc(F)cc2)c(-c2ccncc2)c(NCc2ccncc2)n1C	-22
CCOC(=O)c1c(-c2ccc(F)cc2)c(-c2ccncc2)c(CCCOCc2ccccc2)n1C	51

----------
target: MAPK14 (human); test: In vitro Inhibition of TNF-alpha Production in PBMC Cells

smiles notation	IC50, nM
COC(=O)c1c(-c2ccc(F)cc2)c(-c2ccncc2)c(N=C(c2ccccc2)c2ccccc2)n1C	52
COC(=O)c1c(-c2ccc(F)cc2)c(-c2ccncc2)cn1CCN1CCOCC1	10000
CCC(=O)c1c(-c2ccc(F)cc2)c(-c2ccncc2)c(N2CCNCC2)n1C	67
